Tested on: Staphylococcus epidermidis 222
particulars: agar dilution
test-readout: log10 MIC (log10 of the value in µg/mL)

molecule	assay-system	log10 MIC
CNC(CC(C)C)C(=O)NC1C(=O)NC(CC(N)=O)C(=O)NC2C(=O)NC3C(=O)NC(C(=O)NC(C(=O)O)c4cc(O)cc(O)c4-c4cc3ccc4O)C(O)c3ccc(c(Cl)c3)Oc3cc2cc(c3OC2OC(CO)C(O)C(O)C2OC2CC(C)(NC(=O)C(NC(=O)OCc3ccccc3)C(C)C)C(O)C(C)O2)Oc2ccc(cc2Cl)C1O (stereo not drawn) [Compound 32]	Staphylococcus epidermidis 222	0.90
CCCCCCCCCCCCCC(=O)NC1(C)CC(OC2C(Oc3c4cc5cc3Oc3ccc(cc3Cl)C(O)C3NC(=O)C(NC(=O)C5NC(=O)C(CC(N)=O)NC(=O)C(NC(=O)C(CC(C)C)NC)C(O)c5ccc(c(Cl)c5)O4)c4ccc(O)c(c4)-c4c(O)cc(O)cc4C(C(=O)O)NC3=O)OC(CO)C(O)C2O)OC(C)C1O (stereo not drawn) [Compound 14, N^van --(1-oxo-n-tetradecyl)vancomycin]	Staphylococcus epidermidis 222	0.30
CCC(CC)C(=O)NC1(C)CC(OC2C(Oc3c4cc5cc3Oc3ccc(cc3Cl)C(O)C3NC(=O)C(NC(=O)C5NC(=O)C(CC(N)=O)NC(=O)C(NC(=O)C(CC(C)C)NC)C(O)c5ccc(c(Cl)c5)O4)c4ccc(O)c(c4)-c4c(O)cc(O)cc4C(C(=O)O)NC3=O)OC(CO)C(O)C2O)OC(C)C1O (stereo not drawn) [Compound 22]	Staphylococcus epidermidis 222	0.30
CNC(CC(C)C)C(=O)NC1C(=O)NC(CC(N)=O)C(=O)NC2C(=O)NC3C(=O)NC(C(=O)NC(C(=O)O)c4cc(O)cc(O)c4-c4cc3ccc4O)C(O)c3ccc(c(Cl)c3)Oc3cc2cc(c3OC2OC(CO)C(O)C(O)C2OC2CC(C)(NC(=O)CCCCCBr)C(O)C(C)O2)Oc2ccc(cc2Cl)C1O (stereo not drawn) [Compound 35, N^van --(6-bromo-n-hexyl)vancomycin]	Staphylococcus epidermidis 222	0.60
CCCCCCCC(=O)NC1(C)CC(OC2C(Oc3c4cc5cc3Oc3ccc(cc3Cl)C(O)C(NC(=O)C(CC(C)C)N(C)C(=O)CCCCCCC)C(=O)NC(CC(N)=O)C(=O)NC5C(=O)NC3C(=O)NC(C(=O)NC(C(=O)O)c5cc(O)cc(O)c5-c5cc3ccc5O)C(O)c3ccc(c(Cl)c3)O4)OC(CO)C(O)C2O)OC(C)C1O (stereo not drawn) [Compound 5]	Staphylococcus epidermidis 222	1.81
CNC(CC(C)C)C(=O)NC1C(=O)NC(CC(N)=O)C(=O)NC2C(=O)NC3C(=O)NC(C(=O)NC(C(=O)O)c4cc(O)cc(O)c4-c4cc3ccc4O)C(O)c3ccc(c(Cl)c3)Oc3cc2cc(c3OC2OC(CO)C(O)C(O)C2OC2CC(C)(NC(=O)C(N)C(C)C)C(O)C(C)O2)Oc2ccc(cc2Cl)C1O (stereo not drawn) [Compound 33]	Staphylococcus epidermidis 222	1.51

---

Test system: Streptococcus faecium ATCC 9790
particulars: agar dilution
test-readout: MIC (µg/mL)

compound	test-readout	unit-spec	readout-number
CNC(CC(C)C)C(=O)NC1C(=O)NC(CC(N)=O)C(=O)NC2C(=O)NC3C(=O)NC(C(=O)NC(C(=O)O)c4cc(O)cc(O)c4-c4cc3ccc4O)C(O)c3ccc(c(Cl)c3)Oc3cc2cc(c3OC2OC(CO)C(O)C(O)C2OC2CC(C)(NC(=O)C(NC(=O)OCc3ccccc3)C(C)C)C(O)C(C)O2)Oc2ccc(cc2Cl)C1O (stereo not drawn)	MIC	µg/mL	4
CNC(CC(C)C)C(=O)NC1C(=O)NC(CC(N)=O)C(=O)NC2C(=O)NC3C(=O)NC(C(=O)NC(C(=O)O)c4cc(O)cc(O)c4-c4cc3ccc4O)C(O)c3ccc(c(Cl)c3)Oc3cc2cc(c3OC2OC(CO)C(O)C(O)C2OC2CC(C)(NC(=O)C(N)C(C)C)C(O)C(C)O2)Oc2ccc(cc2Cl)C1O (stereo not drawn)	MIC	µg/mL	8
CCCCCCCCCC(=O)NC1(C)CC(OC2C(Oc3c4cc5cc3Oc3ccc(cc3Cl)C(O)C(NC(=O)C(CC(C)C)N(C)C(=O)CCCCCCCCC)C(=O)NC(CC(N)=O)C(=O)NC5C(=O)NC3C(=O)NC(C(=O)NC(C(=O)O)c5cc(O)cc(O)c5-c5cc3ccc5O)C(O)c3ccc(c(Cl)c3)O4)OC(CO)C(O)C2O)OC(C)C1O (stereo not drawn)	MIC	µg/mL	8

---

Test system: Streptococcus faecium ATCC 9790
particulars: agar dilution
Cut-off 2 µg/mL on MIC: below means label 1, at or above means label 0.

compound	assay-system	assigned-category
CCCCCCCC(=O)NC1(C)CC(OC2C(Oc3c4cc5cc3Oc3ccc(cc3Cl)C(O)C(NC(=O)C(CC(C)C)N(C)C(=O)CCCCCCC)C(=O)NC(CC(N)=O)C(=O)NC5C(=O)NC3C(=O)NC(C(=O)NC(C(=O)O)c5cc(O)cc(O)c5-c5cc3ccc5O)C(O)c3ccc(c(Cl)c3)O4)OC(CO)C(O)C2O)OC(C)C1O (stereo not drawn)	Streptococcus faecium ATCC 9790	label 0
CCCCCCCCCC(=O)NC1(C)CC(OC2C(Oc3c4cc5cc3Oc3ccc(cc3Cl)C(O)C3NC(=O)C(NC(=O)C5NC(=O)C(CC(N)=O)NC(=O)C(NC(=O)C(CC(C)C)NC)C(O)c5ccc(c(Cl)c5)O4)c4ccc(O)c(c4)-c4c(O)cc(O)cc4C(C(=O)O)NC3=O)OC(CO)C(O)C2O)OC(C)C1O (stereo not drawn)	Streptococcus faecium ATCC 9790	label 1
CCCCCCCC(=O)N(C)C(CC(C)C)C(=O)NC1C(=O)NC(CC(N)=O)C(=O)NC2C(=O)NC3C(=O)NC(C(=O)NC(C(=O)O)c4cc(O)cc(O)c4-c4cc3ccc4O)C(O)c3ccc(c(Cl)c3)Oc3cc2cc(c3OC2OC(CO)C(O)C(O)C2OC2CC(C)(N)C(O)C(C)O2)Oc2ccc(cc2Cl)C1O (stereo not drawn)	Streptococcus faecium ATCC 9790	label 0
CCCCCCCCCCCC(=O)NC1(C)CC(OC2C(Oc3c4cc5cc3Oc3ccc(cc3Cl)C(O)C3NC(=O)C(NC(=O)C5NC(=O)C(CC(N)=O)NC(=O)C(NC(=O)C(CC(C)C)NC)C(O)c5ccc(c(Cl)c5)O4)c4ccc(O)c(c4)-c4c(O)cc(O)cc4C(C(=O)O)NC3=O)OC(CO)C(O)C2O)OC(C)C1O (stereo not drawn)	Streptococcus faecium ATCC 9790	label 1
CCCCCCCCCCCC(=O)N(C)C(CC(C)C)C(=O)NC1C(=O)NC(CC(N)=O)C(=O)NC2C(=O)NC3C(=O)NC(C(=O)NC(C(=O)O)c4cc(O)cc(O)c4-c4cc3ccc4O)C(O)c3ccc(c(Cl)c3)Oc3cc2cc(c3OC2OC(CO)C(O)C(O)C2OC2CC(C)(N)C(O)C(C)O2)Oc2ccc(cc2Cl)C1O (stereo not drawn)	Streptococcus faecium ATCC 9790	label 0
CCCCCCCCCCCCCC(=O)NC1(C)CC(OC2C(Oc3c4cc5cc3Oc3ccc(cc3Cl)C(O)C3NC(=O)C(NC(=O)C5NC(=O)C(CC(N)=O)NC(=O)C(NC(=O)C(CC(C)C)NC)C(O)c5ccc(c(Cl)c5)O4)c4ccc(O)c(c4)-c4c(O)cc(O)cc4C(C(=O)O)NC3=O)OC(CO)C(O)C2O)OC(C)C1O (stereo not drawn)	Streptococcus faecium ATCC 9790	label 1
C=CCCCCCCCCC(=O)NC1(C)CC(OC2C(Oc3c4cc5cc3Oc3ccc(cc3Cl)C(O)C(NC(=O)C(CC(C)C)N(C)C(=O)CCCCCCCCC=C)C(=O)NC(CC(N)=O)C(=O)NC5C(=O)NC3C(=O)NC(C(=O)NC(C(=O)O)c5cc(O)cc(O)c5-c5cc3ccc5O)C(O)c3ccc(c(Cl)c3)O4)OC(CO)C(O)C2O)OC(C)C1O (stereo not drawn)	Streptococcus faecium ATCC 9790	label 0
C=CCCCCCCCCC(=O)NC1(C)CC(OC2C(Oc3c4cc5cc3Oc3ccc(cc3Cl)C(O)C3NC(=O)C(NC(=O)C5NC(=O)C(CC(N)=O)NC(=O)C(NC(=O)C(CC(C)C)NC)C(O)c5ccc(c(Cl)c5)O4)c4ccc(O)c(c4)-c4c(O)cc(O)cc4C(C(=O)O)NC3=O)OC(CO)C(O)C2O)OC(C)C1O (stereo not drawn)	Streptococcus faecium ATCC 9790	label 1

---

Tested on: Streptococcus faecium ATCC 9790
particulars: agar dilution
test-readout: MIC (µg/mL)

compound	readout-number
CNC(CC(C)C)C(=O)NC1C(=O)NC(CC(N)=O)C(=O)NC2C(=O)NC3C(=O)NC(C(=O)NC(C(=O)O)c4cc(O)cc(O)c4-c4cc3ccc4O)C(O)c3ccc(c(Cl)c3)Oc3cc2cc(c3OC2OC(CO)C(O)C(O)C2OC2CC(C)(NC(=O)CCC(C)=O)C(O)C(C)O2)Oc2ccc(cc2Cl)C1O (centres unmarked)	4
CNC(CC(C)C)C(=O)NC1C(=O)NC(CC(N)=O)C(=O)NC2C(=O)NC3C(=O)NC(C(=O)NC(C(=O)O)c4cc(O)cc(O)c4-c4cc3ccc4O)C(O)c3ccc(c(Cl)c3)Oc3cc2cc(c3OC2OC(CO)C(O)C(O)C2OC2CC(C)(NC(=O)CC(C)C)C(O)C(C)O2)Oc2ccc(cc2Cl)C1O (centres unmarked)	2
